tgt: T1, Plasmodium vivax Duffy binding protein region II (PvDBP-RII), residues 194 to 521, His-tagged (Plasmodium vivax, UniProt P22290 194-521, biotin (biotinylated with co-transfected secreted E. coli BirA and D-biotin, for the ELISA bait))
T1 construct: source: HEK293E, transfected, culture supernatant, purified (Ni-NTA agarose); not shown: His, C-terminal, kept
measurement.description: BLI; Octet RED96; Fc-tagged receptor immobilised on protein G (ProG) biosensor, twofold serial dilution of His-tagged parasite ligand in HBS; KD from the response in equilibrium against concentration
experimental.conditions: both partners purified
metric: Kd (nM)
Value expressed in nM; do not type the unit.

Data request: Find the recorded Kd belonging to Duffy antigen receptor for chemokines (DARC, CD234), residues 1 to 63, Fc-fusion (Fc fusion, human, UniProt Q16570 1-63, looked up, Duffy antigen receptor for chemokines (CD234), human, residues 1 to 63; also called human DARC; source: HEK293E, transfected, culture supernatant, purified (HiTrap Protein G HP); not shown: Fc, C-terminal, kept) MGNCLHRAELSPSTENSSQLDFEDVWNSSYGVNDSFPDGDYGANLEAAAPCHSCNLLDDSALP and report it.
Data returned: 7.7

The values you see were collected from paper PMC10658926.
